Examples of compounds with documented growth follow.
system: SN12C renal; assay: NCI-60 one-dose screen, 48 h (100 = growth as untreated, 0 = no growth, -100 = all killed); settings: 10 µM
About 83,000 compounds went through this panel and 20% of them were active in at least one assay; those are over-represented in the sample as a whole.
readout: growth (%)

# compound, readout, unit, experimentalValue
measured = [
    ("CN(C)c1ccc(/C=C/c2nc3ccccc3c(=O)n2CC(=O)Nc2ccccc2)cc1", "growth", "%", 39),
    ("CN(C)c1ccc(/C=C/c2nc3ccccc3c(=O)n2CC(=O)Nc2ccc(Cl)cc2)cc1", "growth", "%", 76.4),
    ("O=C(Nc1cccc([N+](=O)[O-])c1)Nc1cccc([N+](=O)[O-])c1", "growth", "%", 82.4),
    ("Nc1n[nH]c2cccc(C#Cc3cccc(NC(=O)Nc4cc(C(F)(F)F)cc(C(F)(F)F)c4)c3)c12", "growth", "%", -85.9),
    ("O=c1[nH]c2ccccc2cc1CSc1ccc(Nc2nccc(-c3ccc4c(c3)OCO4)n2)cc1", "growth", "%", 96),
    ("COc1ccc(-c2nc(Nc3ccccc3S(N)(=O)=O)c3ccccc3n2)cc1", "growth", "%", 26.3),
    ("O=C(Nc1ccc(I)cc1)Nc1nc2ccc([N+](=O)[O-])cc2s1", "growth", "%", -97.7),
    ("C/C(=C\\c1ccc(O)cc1O)c1ccc2ccc(O)cc2[o+]1", "growth", "%", 44.9),
    ("O=C(c1ccc(O)cc1)C1[C@H](c2ccc(Br)cc2)[C@@H](c2ccccc2)NC12C(=O)Nc1ccc(Br)cc12 (stereo partly drawn)", "growth", "%", -83.5),
    ("CN1C/C(=C\\c2ccc(O)cc2O)c2[o+]c3cc(O)ccc3cc2C1", "growth", "%", 39.9),
    ("O=c1[nH]n(C(=S)N/N=C/c2ccc(F)cc2)c(=O)c2ccccc12", "growth", "%", 71.2),
    ("O=C1NC(=NC23CC4CC(CC(C4)C2)C3)N/C1=C\\c1ccc2ncsc2c1", "growth", "%", 8.93),
    ("Cc1ccn2c(C(=O)c3ccc(Br)cc3)cc(-c3cc(-c4ccc(N(C)C)cc4)c(C#N)c(N)n3)c2c1", "growth", "%", 76.5),
    ("N#Cc1c(NC(=O)c2ccc(C(F)(F)F)cc2)sc2c1CCC(=O)C2", "growth", "%", -31.9),
    ("O=C(CSc1nnc(-c2c[nH]c3ccccc23)n1-c1ccccc1)c1ccccc1", "growth", "%", 44.7),
    ("O=c1oc2ccc(-c3ccc(F)cc3F)cc2c(=O)n1-c1ccc(F)c(Cl)c1", "growth", "%", -17),
    ("O=C(Nc1ccc(OCC(=O)c2ccccc2)cc1)Nc1ccc(Cl)c(C(F)(F)F)c1", "growth", "%", 24.9),
    ("CC(C)C1=C[C@@]23CC[C@@H]4[C@](C)(CCC[C@]4(C)C(=O)NCc4ccccc4)[C@H]2C[C@@H]1[C@H]1C(=O)CCC(=O)[C@H]13", "growth", "%", 83.4),
]

---

system: K-562 leukemia; experiment: NCI-60 one-dose screen, 48 h (100 = growth as untreated, 0 = no growth, -100 = all killed); settings: 10 µM
The panel holds about 83,000 compounds, 20% with a hit somewhere; the sample as a whole holds those more often.
readout: growth (%)

# compound, measuredOn, experimentalValue
records = [
    ("C/C(=N\\N=C\\c1ccc(Cl)c([N+](=O)[O-])c1)c1ccc2c(c1)Nc1ccccc1S2", "K-562 leukemia", 38.6),
    ("CC1(c2ccccc2)NC(=O)N(CC(=O)Nc2ccc(C(=O)/C=C/c3ccc(Br)cc3)cc2)C1=O (stereo not drawn)", "K-562 leukemia", 14.5),
    ("Cc1ccc(-c2cc(C(=O)N=Nc3c(O)[nH]c4ccccc34)c3ccccc3n2)cc1", "K-562 leukemia", 13.8),
]
